# targetOrTestSystem: IKZF1 (Homo sapiens, UniProt Q13422+Q96SW2)
# Construct: expressed in transfected cells
# Sequence (Q13422 whole entry): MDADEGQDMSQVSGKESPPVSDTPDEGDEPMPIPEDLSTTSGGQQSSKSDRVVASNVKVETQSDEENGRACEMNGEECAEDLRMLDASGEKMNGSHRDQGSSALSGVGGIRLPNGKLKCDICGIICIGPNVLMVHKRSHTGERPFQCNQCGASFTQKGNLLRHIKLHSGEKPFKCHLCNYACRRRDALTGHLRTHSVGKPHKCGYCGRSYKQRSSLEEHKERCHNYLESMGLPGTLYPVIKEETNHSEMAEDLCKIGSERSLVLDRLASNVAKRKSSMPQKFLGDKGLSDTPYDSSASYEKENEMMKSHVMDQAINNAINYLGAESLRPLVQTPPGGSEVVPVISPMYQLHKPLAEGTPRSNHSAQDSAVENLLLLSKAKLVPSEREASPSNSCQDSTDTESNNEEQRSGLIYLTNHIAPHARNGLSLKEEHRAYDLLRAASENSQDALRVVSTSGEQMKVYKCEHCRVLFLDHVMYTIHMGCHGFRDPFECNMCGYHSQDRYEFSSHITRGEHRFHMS
# Sequence (Q96SW2 whole entry): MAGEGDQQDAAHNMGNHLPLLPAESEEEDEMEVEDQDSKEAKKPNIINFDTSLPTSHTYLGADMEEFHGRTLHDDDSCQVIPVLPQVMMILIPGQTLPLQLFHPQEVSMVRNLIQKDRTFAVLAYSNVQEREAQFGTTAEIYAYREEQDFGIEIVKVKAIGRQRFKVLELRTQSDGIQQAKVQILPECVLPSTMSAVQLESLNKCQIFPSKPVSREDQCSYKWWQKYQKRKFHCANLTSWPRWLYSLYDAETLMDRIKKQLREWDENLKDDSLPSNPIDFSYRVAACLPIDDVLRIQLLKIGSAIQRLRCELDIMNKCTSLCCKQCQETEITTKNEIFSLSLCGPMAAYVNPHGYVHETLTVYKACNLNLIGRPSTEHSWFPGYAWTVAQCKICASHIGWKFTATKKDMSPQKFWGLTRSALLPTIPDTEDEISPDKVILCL
# Sequence (Q16531 whole entry partner): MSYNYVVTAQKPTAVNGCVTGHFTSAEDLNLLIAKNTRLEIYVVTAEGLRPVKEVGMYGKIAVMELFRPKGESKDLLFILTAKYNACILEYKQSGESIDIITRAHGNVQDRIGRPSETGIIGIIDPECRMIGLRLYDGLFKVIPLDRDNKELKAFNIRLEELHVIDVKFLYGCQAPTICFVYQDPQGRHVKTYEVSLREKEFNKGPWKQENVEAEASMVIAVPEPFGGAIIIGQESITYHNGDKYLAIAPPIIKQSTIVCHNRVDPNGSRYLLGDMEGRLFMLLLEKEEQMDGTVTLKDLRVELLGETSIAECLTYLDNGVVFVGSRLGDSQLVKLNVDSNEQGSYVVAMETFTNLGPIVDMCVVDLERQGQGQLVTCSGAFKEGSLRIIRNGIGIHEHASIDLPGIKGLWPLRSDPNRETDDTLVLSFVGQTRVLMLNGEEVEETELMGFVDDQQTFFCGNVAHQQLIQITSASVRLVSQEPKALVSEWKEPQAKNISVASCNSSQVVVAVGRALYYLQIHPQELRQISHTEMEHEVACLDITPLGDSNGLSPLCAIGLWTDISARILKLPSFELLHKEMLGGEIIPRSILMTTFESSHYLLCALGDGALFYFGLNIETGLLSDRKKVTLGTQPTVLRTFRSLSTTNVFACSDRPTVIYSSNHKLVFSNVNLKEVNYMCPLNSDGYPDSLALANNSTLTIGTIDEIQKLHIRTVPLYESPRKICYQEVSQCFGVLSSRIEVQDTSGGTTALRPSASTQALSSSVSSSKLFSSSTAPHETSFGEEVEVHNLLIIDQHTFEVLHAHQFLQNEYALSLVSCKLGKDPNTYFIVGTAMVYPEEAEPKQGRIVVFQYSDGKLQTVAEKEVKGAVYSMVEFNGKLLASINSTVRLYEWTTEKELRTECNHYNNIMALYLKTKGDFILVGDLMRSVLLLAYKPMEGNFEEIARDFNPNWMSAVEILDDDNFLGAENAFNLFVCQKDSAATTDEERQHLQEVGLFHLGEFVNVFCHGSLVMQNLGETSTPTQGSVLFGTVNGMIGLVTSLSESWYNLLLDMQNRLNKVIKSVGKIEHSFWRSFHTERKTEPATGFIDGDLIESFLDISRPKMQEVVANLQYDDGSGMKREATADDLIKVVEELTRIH
# protocolText: HEK293 HiBiT in vitro degradation of IKZF1
# Assay type: cell-based
# testSettings: HEK293 HiBiT; maximum degradation at the highest concentration tested
Recorded IKZF1 Dmax, one value per entry.
Value expressed in %; do not type the unit.

molecule	IKZF1 Dmax, %
O=C1CCC(N2Cc3c(ccc(C[C@H]4CCCC[C@@H]4NC4CCOCC4)c3F)C2=O)C(=O)N1 (stereo partly shown) [Example 188]	34
O=C1CCC(N2Cc3cc(C[C@H]4CCCC[C@@H]4NC4CCc5c(C(F)(F)F)n[nH]c5C4)ccc3C2=O)C(=O)N1 (single isomer, unassigned) [Example 363]	56
O=C1CCC(N2Cc3cc(C[C@H]4CCCC[C@@H]4NC4CC5CCC(C4)O5)ccc3C2=O)C(=O)N1 (stereo partly shown) [Example 184]	30

# molecule O=C1CCC(N2Cc3c(ccc(C[C@H]4OCCC[C@@H]4NC4CCC5(CC4)CC5(F)F)c3F)C2=O)C(=O)N1 (single isomer, unassigned) [Example 365] ; its IKZF1 Dmax = 43

# molecule O=C1CCC(N2Cc3c(ccc(C[C@H]4CCCC[C@@H]4NC4CCOC4)c3F)C2=O)C(=O)N1 (stereo partly shown) [Example 190] ; its IKZF1 Dmax = 44

# molecule O=C1CCC(N2Cc3cc(C[C@H]4CCCC[C@@H]4NC4CCC(C(F)F)CC4)ccc3C2=O)C(=O)N1 (stereo partly shown) [Example 217] ; its IKZF1 Dmax = 44

# molecule O=C1CCC(N2Cc3cc(C[C@H]4CCCC[C@@H]4NC4CCC(OC(F)(F)F)CC4)ccc3C2=O)C(=O)N1 (single isomer, unassigned) [Example 146] ; its IKZF1 Dmax = 34

----------
Recorded DC50, one value per entry.
# targetOrTestSystem: IKZF1 (Homo sapiens, UniProt Q13422+Q96SW2)
# Construct: expressed in transfected cells
# protocolText: HEK293 HiBiT in vitro degradation of IKZF1
# Format: cell-based
# testSettings: HEK293 HiBiT, 18-24 hr incubation, normalized to DMSO control; read-out: IKZF1 EC50
Value expressed in nM; do not type the unit.

As a guide, the following entries are already answered.
compound	DC50 / nM
O=C1CCC(N2Cc3cc(C[C@H]4CCCC[C@@H]4NC4CCOc5ccccc54)ccc3C2=O)C(=O)N1 (some centres unmarked)	189
[2H]C1(N[C@H]2CCCC[C@@H]2Cc2ccc3c(c2)CN(C2CCC(=O)NC2=O)C3=O)CCCCC1 (some centres unmarked)	174
CC(N[C@H]1CCCC[C@@H]1Cc1ccc2c(c1)CN(C1CCC(=O)NC1=O)C2=O)C1CCC1 (some centres unmarked) [Example 218]	626

Next:
DC50 for IKZF1 (Homo sapiens, UniProt Q13422+Q96SW2) with input C[C@H]1CCCC(N[C@H]2CCCC[C@@H]2Cc2ccc3c(c2)CN(C2CCC(=O)NC2=O)C3=O)C1 (some centres unmarked) [Example 237] equals 208

----------
# targetOrTestSystem: IKZF1 (Homo sapiens, UniProt Q13422+Q96SW2)
# Construct: expressed in transfected cells
# protocolText: HEK293 HiBiT in vitro degradation of IKZF1
# Format: cell-based
# testSettings: HEK293 HiBiT, 18-24 hr incubation, normalized to DMSO control; read-out: IKZF1 EC50
Recorded DC50, one value per entry.
Value expressed in nM; do not type the unit.

DC50 for IKZF1 (Homo sapiens, UniProt Q13422+Q96SW2) with input O=C1CCC(N2Cc3cc(C[C@H]4CCCC[C@@H]4NC4CCC(c5ccccn5)CC4)ccc3C2=O)C(=O)N1 (stereo partly shown) equals 44

DC50 for IKZF1 (Homo sapiens, UniProt Q13422+Q96SW2) with input O=C1CCC(N2Cc3cc(C[C@H]4CCCC[C@@H]4NC4CCC(OC(F)(F)F)CC4)ccc3C2=O)C(=O)N1 (single isomer, unassigned) [Example 145] equals 55

DC50 for IKZF1 (Homo sapiens, UniProt Q13422+Q96SW2) with input O=C1CCC(N2Cc3cc(C[C@H]4CCCC[C@@H]4NC4CCC5(CC4)COC5)ccc3C2=O)C(=O)N1 (stereo partly shown) equals 141

DC50 for IKZF1 (Homo sapiens, UniProt Q13422+Q96SW2) with input O=C1CCC(N2Cc3c(ccc(C[C@H]4CCCC[C@@H]4NC4CCOCC4)c3F)C2=O)C(=O)N1 (stereo partly shown) [Example 116] equals 44
